target-system: A*6802 (Homo sapiens, UniProt P04439, A269V/D140Y/D185E/E176V/E277Q/E87N/F33Y/G231S/I121R/I166T/I218V/L180W/L300P/L318F/N151K/P208A/P217A/Q86R/R138H/R169H/S129P/T345S/V36M)
experiment-description: biochemical
Type: binding
No end group written: not given here.
recorded-metric: pIC50
Answers are plain numbers, as −log10 of the molar value.

Previously resolved entries follow.
[
  {
    "sequence-input": "FLQGSVICFV [Peptide 1578.05]",
    "pIC50": 6.42
  },
  {
    "sequence-input": "YLCGIQNSVSA [Peptide 9013.0338]",
    "pIC50": 5.04
  },
  {
    "sequence-input": "RLTVKTITVSA [Peptide 9013.0319]",
    "pIC50": 6.57
  },
  {
    "sequence-input": "RLLLTASLLV [Peptide 9013.0117]",
    "pIC50": 5.23
  },
  {
    "sequence-input": "ILAEAMSKA [Peptide 1516.09]",
    "pIC50": 5.58
  },
  {
    "sequence-input": "ELQNTTYLWWV [Peptide 9013.0325]",
    "pIC50": 6.80
  },
  {
    "sequence-input": "VVWDSIYYI [Peptide 1578.53]",
    "pIC50": 7.28
  },
  {
    "sequence-input": "LTFWNPPTTV [Peptide 9013.0122]",
    "pIC50": 7.64
  },
  {
    "sequence-input": "QQIEFITFL [Peptide 1578.10]",
    "pIC50": 7.03
  },
  {
    "sequence-input": "VQWAYDNDV [Peptide 86.0190]",
    "pIC50": 5.44
  }
]

Record pIC50 for all entries; do not skip any.
1. QITPLCVTL [Peptide 1516.13]
2. TLELFIPNITV [Peptide 9013.0299]
3. YTNWGEIYI [Peptide 1578.49]
4. YTYYRPGVNV [Peptide 9013.0208]
5. NLNLSCHAV [Peptide 9013.0054]
6. AQYSWLIDGNV [Peptide 9013.0314]
7. MTRNPPVPV [Peptide 1539.02]
8. GVNLSLSCHAV [Peptide 9013.0311]

5.54
5.98
7.62
8.15
5.66
4.81
6.93
6.02

Lab note: measured pIC50 of RVLQQLLFI [Peptide 1545.01] was 4.98
